Would you mind telling me the reported Ki of each entry?
molecular target: hCA XII (Homo sapiens, UniProt O43570); construct: made in house; assay: stopped-flow CO2 hydrase assay, hCA XII; type: biochemical; conditions: recombinant enzyme, 15 min preincubation, pH 8.3, mean from 3 assays
Sequence (O43570 25-354): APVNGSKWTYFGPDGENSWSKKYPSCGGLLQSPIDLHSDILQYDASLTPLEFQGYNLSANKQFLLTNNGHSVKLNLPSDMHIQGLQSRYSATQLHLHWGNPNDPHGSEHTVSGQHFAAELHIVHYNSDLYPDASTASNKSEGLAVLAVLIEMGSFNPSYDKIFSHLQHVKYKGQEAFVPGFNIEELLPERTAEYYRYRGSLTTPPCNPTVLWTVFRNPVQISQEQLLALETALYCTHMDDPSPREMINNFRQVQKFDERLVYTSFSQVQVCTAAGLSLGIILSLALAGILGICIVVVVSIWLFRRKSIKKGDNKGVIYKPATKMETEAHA

[ask] May I ask what Ki has been recorded for CC(O)C(Nc1nc(NCCc2ccc(S(N)(=O)=O)cc2)nc(NC(C(=O)O)C(C)O)n1)C(=O)O (stereo not drawn) ?
[reply] 62.7 nM

[ask] Next entry: NS(=O)(=O)c1ccc(CNc2nc(NC(CO)C(=O)O)nc(NC(CO)C(=O)O)n2)cc1 (stereo not drawn)
[reply] 81.5 nM

[ask] Next record, please: NS(=O)(=O)c1ccc(CCNc2nc(NC(CO)C(=O)O)nc(NC(CO)C(=O)O)n2)cc1 (stereo not drawn)
[reply] 27.1 nM

[ask] Again, but for CC(O)C(Nc1nc(Nc2ccc(S(N)(=O)=O)cc2)nc(NC(C(=O)O)C(C)O)n1)C(=O)O (stereo not drawn)
[reply] 34.6 nM

[ask] Subsequent entry: CC(Nc1nc(NCc2ccc(S(N)(=O)=O)cc2)nc(NC(C)C(=O)O)n1)C(=O)O (stereo not drawn)
[reply] 9.3 nM

[ask] Repeat with NC(=O)CC(Nc1nc(NCc2ccc(S(N)(=O)=O)cc2)nc(NC(CC(N)=O)C(=O)O)n1)C(=O)O (stereo not drawn)
[reply] 44 nM

----------
molecular target: hCA IX (Homo sapiens); construct: made in house; test: stopped-flow CO2 hydrase assay, hCA IX; type: biochemical; settings: ratio Ki hCA II / Ki hCA IX
# if measured Selectivity II/IX < 1: y  # else: n

[ask] Bench note: check whether NC(=O)CCC(Nc1nc(NCCc2ccc(S(N)(=O)=O)cc2)nc(NC(CCC(N)=O)C(=O)O)n1)C(=O)O (stereo not shown) shows Selectivity II/IX below 1
[reply] y

[ask] Proceed to CC(Nc1nc(Nc2ccc(S(N)(=O)=O)cc2)nc(NC(C)C(=O)O)n1)C(=O)O (stereo not shown)
[reply] n

[ask] Another: NC(=O)CC(Nc1nc(NCCc2ccc(S(N)(=O)=O)cc2)nc(NC(CC(N)=O)C(=O)O)n1)C(=O)O (stereo not shown)
[reply] y

[ask] Now consider NS(=O)(=O)c1ccc(Nc2nc(NC(CO)C(=O)O)nc(NC(CO)C(=O)O)n2)cc1 (stereo not shown) and answer again.
[reply] n

[ask] What about this compound? NS(=O)(=O)c1ccc(CNc2nc(NC(CO)C(=O)O)nc(NC(CO)C(=O)O)n2)cc1 (stereo not shown)
[reply] y

[ask] Try this compound next: CC(O)C(Nc1nc(NCCc2ccc(S(N)(=O)=O)cc2)nc(NC(C(=O)O)C(C)O)n1)C(=O)O (stereo not shown)
[reply] n

[ask] Follow-up entry: CC(O)C(Nc1nc(NCc2ccc(S(N)(=O)=O)cc2)nc(NC(C(=O)O)C(C)O)n1)C(=O)O (stereo not shown)
[reply] y

[ask] Would you kindly repeat that for CC(Nc1nc(NCc2ccc(S(N)(=O)=O)cc2)nc(NC(C)C(=O)O)n1)C(=O)O (stereo not shown) ?
[reply] n

[ask] // next record NS(=O)(=O)c1ccc(CCNc2nc(NC(CO)C(=O)O)nc(NC(CO)C(=O)O)n2)cc1 (stereo not shown)
[reply] n

[ask] Try this compound next: CC(O)C(Nc1nc(Nc2ccc(S(N)(=O)=O)cc2)nc(NC(C(=O)O)C(C)O)n1)C(=O)O (stereo not shown)
[reply] n

[ask] Also `NS(=O)(=O)c1ccc(Nc2nc(N[C@@H](Cc3c[nH]c4ccccc34)C(=O)O)nc(N[C@@H](Cc3c[nH]c4ccccc34)C(=O)O)n2)cc1` , if possible.
[reply] y

[ask] Another compound: NS(=O)(=O)c1ccc(CNc2nc(NC(Cc3c[nH]c4ccccc34)C(=O)O)nc(NC(Cc3c[nH]c4ccccc34)C(=O)O)n2)cc1 (stereo not shown)
[reply] y

[ask] What do you get for NS(=O)(=O)c1ccc(CCNc2nc(NC(Cc3c[nH]c4ccccc34)C(=O)O)nc(NC(Cc3c[nH]c4ccccc34)C(=O)O)n2)cc1 (stereo not shown) ?
[reply] y

----------
molecular target: hCA IX (Homo sapiens); test: stopped-flow CO2 hydrase assay, hCA IX; conditions: recombinant enzyme, 15 min preincubation, pH 8.3, mean from 3 assays
readout.kind: pKi
The meaning of pKi here: minus log10 of the concentration in molar units.

[ask] Please report the recorded pKi for NS(=O)(=O)c1ccc(CCNc2nc(NC(CO)C(=O)O)nc(NC(CO)C(=O)O)n2)cc1 (stereo not shown) [compound 21] .
[reply] 7.07

[ask] Please do the same for NC(=O)CCC(Nc1nc(Nc2ccc(S(N)(=O)=O)cc2)nc(NC(CCC(N)=O)C(=O)O)n1)C(=O)O (stereo not shown) [compound 10] as well.
[reply] 6.20

[ask] Lookup NS(=O)(=O)c1ccc(Nc2nc(NC(Cc3ccc(O)cc3)C(=O)O)nc(NC(Cc3ccc(O)cc3)C(=O)O)n2)cc1 (stereo not shown) [compound 5]
[reply] 7.24

[ask] Moving on to CC(O)C(Nc1nc(NCc2ccc(S(N)(=O)=O)cc2)nc(NC(C(=O)O)C(C)O)n1)C(=O)O (stereo not shown) [compound 15]
[reply] 6.44

[ask] Proceed to NC(=O)CC(Nc1nc(Nc2ccc(S(N)(=O)=O)cc2)nc(NC(CC(N)=O)C(=O)O)n1)C(=O)O (stereo not shown) [compound 9]
[reply] 6.05

[ask] Also NC(=O)CC(Nc1nc(NCCc2ccc(S(N)(=O)=O)cc2)nc(NC(CC(N)=O)C(=O)O)n1)C(=O)O (stereo not shown) [compound 23] , if possible.
[reply] 6.42

[ask] Please answer likewise for NC(=O)CC(Nc1nc(NCc2ccc(S(N)(=O)=O)cc2)nc(NC(CC(N)=O)C(=O)O)n1)C(=O)O (stereo not shown) [compound 16]
[reply] 7.02

----------
molecular target: hCA IX (Homo sapiens, UniProt Q16790); assay: stopped-flow CO2 hydrase assay, hCA IX; details: recombinant enzyme, 15 min preincubation, pH 8.3, mean from 3 assays
readout.kind: pKi
Keep it numeric: pKi is minus log10 of the concentration in mol/L.

[ask] Would you kindly share the measured pKi for CC(Nc1nc(NCCc2ccc(S(N)(=O)=O)cc2)nc(NC(C)C(=O)O)n1)C(=O)O (centres unmarked) ?
[reply] 7.10

[ask] Same lookup for NS(=O)(=O)c1ccc(CCNc2nc(NC(Cc3c[nH]c4ccccc34)C(=O)O)nc(NC(Cc3c[nH]c4ccccc34)C(=O)O)n2)cc1 (centres unmarked) , please.
[reply] 6.51

[ask] Lookup CC(Nc1nc(NCc2ccc(S(N)(=O)=O)cc2)nc(NC(C)C(=O)O)n1)C(=O)O (centres unmarked)
[reply] 7.20

[ask] Please give the result for NS(=O)(=O)c1ccc(CNc2nc(NC(Cc3c[nH]c4ccccc34)C(=O)O)nc(NC(Cc3c[nH]c4ccccc34)C(=O)O)n2)cc1 (centres unmarked) too.
[reply] 7.18

[ask] Next record, please: NS(=O)(=O)c1ccc(CNc2nc(NC(CO)C(=O)O)nc(NC(CO)C(=O)O)n2)cc1 (centres unmarked)
[reply] 6.58

The values you see were collected from paper PMC8537140.
